# credit: patent US9133235B2

Molecular target: UniProtKB O43193
Sequence (O43193 whole entry): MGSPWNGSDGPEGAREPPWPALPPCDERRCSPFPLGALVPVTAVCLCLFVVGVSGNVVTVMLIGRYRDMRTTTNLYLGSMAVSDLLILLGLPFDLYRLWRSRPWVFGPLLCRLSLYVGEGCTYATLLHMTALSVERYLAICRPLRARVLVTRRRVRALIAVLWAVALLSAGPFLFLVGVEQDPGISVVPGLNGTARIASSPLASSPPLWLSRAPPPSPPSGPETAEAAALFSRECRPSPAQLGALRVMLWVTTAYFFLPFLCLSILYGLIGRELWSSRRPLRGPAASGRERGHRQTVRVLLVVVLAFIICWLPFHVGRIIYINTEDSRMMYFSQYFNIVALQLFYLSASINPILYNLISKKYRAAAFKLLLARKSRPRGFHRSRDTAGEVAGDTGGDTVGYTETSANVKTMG
Experiment: Aequorin functional assay (motilin receptor)
Type: cell-based
Parameters: host or cells: CHO-K1 cells co-expressing Gα16 and mitochondrially targeted Aequorin
Details: functional activity, antagonist testing vs motilin 0.5 nM (EC80)
pIC50: −log10 of the molar value.
measured_quantity: pIC50

CNC[C@@H]1NC(=O)[C@@H](C(C)C)NC(=O)[C@@H](Cc2cccc(F)c2)N[C@@H](C)COc2ccccc2C[C@H](C)CNC1=O: ≥ 9.00
CC(C)[C@H]1NC(=O)[C@@H](Cc2cccc(C(F)(F)F)c2)NCCOc2ccccc2CCCNC(=O)[C@H](CN=[N+]=[N-])NC1=O: ≥ 9.00

Provide the reported pIC50 of each entry below, same order.
1. CC(C)[C@H]1NC(=O)[C@@H](Cc2cccc(F)c2)NCCOc2ccccc2C[C@H](C)CNC(=O)[C@H](CN(C)C)NC1=O
2. CC(C)[C@H]1NC(=O)[C@@H](Cc2cccc(F)c2)N[C@@H](C)COc2ccccc2CCCNC(=O)[C@H](CNc2ncccn2)NC1=O
3. COC[C@@H]1NC(=O)[C@@H](C(C)C)NC(=O)[C@@H](Cc2cccc(F)c2)N[C@@H](C)COc2ccccc2CCCNC1=O
4. CCC[C@@H]1NC(=O)[C@@H](C(C)C)NC(=O)[C@@H](Cc2ccc(O)c(Cl)c2)N[C@@H](C)COc2ccccc2CCCNC1=O

1. ≥ 8.00
2. ≥ 8.00
3. ≥ 8.00
4. ≥ 9.00
